STUDY SYSTEM: NOVA1(3) (Homo sapiens, UniProt P51513)
Sequence: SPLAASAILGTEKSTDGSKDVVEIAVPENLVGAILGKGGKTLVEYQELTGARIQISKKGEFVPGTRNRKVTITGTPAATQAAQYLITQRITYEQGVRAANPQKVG
ASSAY INFO: protein domain microarray probed with biotinylated miRNA; Domain array: 20 mM Tris-HCl pH 7.4, 200 mM KCl, 0.2 mM EDTA, 0.05% NP40, 2 ug/ul heparin, overnight 4 C. ORF array: PBS pH 7.0 with RNase inhibitor, 100 ng RNA; high values mean tight binding
RUN CONDITIONS: ssRNA
TEST READOUT: binding signal (fluorescence intensity)
Express your answer in fluorescence intensity, writing the number without its unit.

SEQUENCE CODE: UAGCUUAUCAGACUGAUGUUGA
QUANTITY UNIT: fluorescence intensity
binding signal: 127

SEQUENCE CODE: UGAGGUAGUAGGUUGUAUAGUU
QUANTITY UNIT: fluorescence intensity
binding signal: 39

SEQUENCE CODE: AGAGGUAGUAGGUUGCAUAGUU
QUANTITY UNIT: fluorescence intensity
binding signal: 1990

// query I am curious: what binding signal value has been reported for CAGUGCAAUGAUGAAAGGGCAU ?
// result 736
